# testedSystem: Histamine H3 receptor (Homo sapiens, UniProt Q9Y5N1)
# Sequence (Q9Y5N1 whole entry): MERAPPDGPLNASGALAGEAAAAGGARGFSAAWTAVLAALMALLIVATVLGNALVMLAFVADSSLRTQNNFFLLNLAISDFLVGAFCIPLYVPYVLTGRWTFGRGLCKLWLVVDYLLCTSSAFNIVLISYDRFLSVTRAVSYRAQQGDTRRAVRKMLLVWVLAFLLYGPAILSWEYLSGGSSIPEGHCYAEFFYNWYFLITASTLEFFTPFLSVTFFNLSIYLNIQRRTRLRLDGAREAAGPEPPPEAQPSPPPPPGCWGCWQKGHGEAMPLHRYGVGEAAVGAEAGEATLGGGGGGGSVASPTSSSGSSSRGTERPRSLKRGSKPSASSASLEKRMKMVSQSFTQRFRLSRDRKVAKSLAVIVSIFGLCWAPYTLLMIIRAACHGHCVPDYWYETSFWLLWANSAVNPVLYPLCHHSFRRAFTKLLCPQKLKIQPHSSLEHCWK
# method: Displacement of [125I]iodoproxyfan from human recombinant histamine H3 receptor expressed in human SK-N-MC cells
Each record here notes measured pKi.
Interpret pKi as the negative base-10 log of the concentration measured in mol/L.

# compound, pKi
measured = [
    ("c1cc(OCC2CN(C3CC3)CCO2)ccc1CN1CCOCC1 (configuration not stated)", 6.97),
    ("c1cc(OCC2CN(C3CCCC3)CCO2)ccc1CN1CCCC1 (configuration not stated)", 8.66),
    ("CCOc1ccccc1OCC1CN(C(C)C)CCO1 (configuration not stated)", 5.05),
]

Provide measured pKi value, entry: c1cc(OCC2CN(C3CCCC3)CCO2)ccc1CN1CCCCC1 (configuration not stated)
8.60

Provide measured pKi value, entry: CC(C)N1CCOC(COc2ccccc2)C1 (configuration not stated)
5.32

Provide measured pKi value, entry: c1cc(OCC2CN(C3CCC3)CCO2)ccc1CN1CCOCC1 (configuration not stated)
7.74

Provide measured pKi value, entry: CCOc1ccccc1OCC1CN(C2CCCC2)CCO1 (configuration not stated)
5.28

Provide measured pKi value, entry: CCN1CCOC(COc2ccc(CN3CCOCC3)cc2)C1 (configuration not stated)
6.78

Provide measured pKi value, entry: CC(C)N1CCOC(COc2cccc(CN3CCOCC3)c2)C1 (configuration not stated)
6.99

Provide measured pKi value, entry: CCOc1ccccc1OCC1CN(C2CCC2)CCO1 (configuration not stated)
5.15
